- System: MCF7 breast
- assay.notes: NCI-60 one-dose screen, 48 h
- assay.conditions: 10 µM
The panel holds about 83,000 compounds, 20% with a hit somewhere; the sample as a whole holds those more often. Calls of active or inactive are those of the source. How the source made its calls: active means growth percent below 10; inactive means the rest.
Possible outcomes: Y = active, N = inactive

molecule | subject.of.test | class.name
COc1cc2c3c(cccc3c1)C(=O)N(CCN1CCCC1)C2=O | MCF7 breast | Y
CC(Oc1ccc(Cl)cc1)c1ccccc1 (stereo not drawn) | MCF7 breast | N
CC(CNC(Cc1ccccc1)c1ccccc1)NC(Cc1ccccc1)c1ccccc1 (stereo not drawn) | MCF7 breast | Y

* * *

- Tested on: PC-3 prostate
- assay.notes: NCI-60 one-dose screen, 48 h
- assay.conditions: 10 µM
Compounds without any hit were thinned out: in the full panel of roughly 83,000, 20% have a hit. Active and inactive are the calls of the source. How the source made its calls: active means growth percent below 10; inactive means the rest.
Possible outcomes: active, inactive

compound | class.name
COc1ccc(-c2ccccc2)cc1C(=O)c1ccc(-c2ccccc2)cc1 | inactive
O=C(C=P(c1ccccc1)(c1ccccc1)c1ccccc1)c1ccc(Br)cc1 | inactive
C=CCNC(=S)NN | inactive
COc1cccc(-c2nnc(COc3ccc(-c4nc5ccccc5[nH]4)cc3OC)o2)c1 | inactive
N#CC1C=Cc2c(ccc3ccccc23)N1C(=O)c1ccccc1 (stereo not given) | inactive
Cc1cc(C)c2c(Nc3ncnc4c3sc3nc(C)cc(C)c34)n[nH]c2n1 | inactive
COc1cc(C(=O)n2nc(N)c3c(C)cc(C)nc32)cc(OC)c1OC | inactive
CCCCCC(CCC)COC(=O)c1ccc(OC)cc1 (stereo not given) | inactive
COC(=O)C1(C(=O)OC)C2C(=O)C3C(C21)C3(C(=O)OC(C)(C)C)C(=O)OC(C)(C)C (stereo not given) | inactive
CCCCCCCCCCN=C(c1ccc(N(C)C)cc1)c1ccc(N(C)C)cc1 | inactive
COC(=O)[C@]12CC[C@@H](C)[C@H](C)[C@@H]1C1=CC[C@@H]3[C@@]4(C)C/C(=N\O)[C@H](O)[C@@]5(C)COC(=C45)C[C@@]3(C)[C@]1(C)CC2 | active
COc1ccc(Cn2cc3c(c2-c2ccccc2)CC(C)(C)c2cnoc2-3)cc1 | inactive
CCOC(=O)[C@@H](Cc1ccccc1)NC(=O)c1[nH]c2ccc(Cl)cc2c(=O)c1C | inactive
C=CCOc1ccc2c(c1)CC[C@@H]1[C@@H]2CC[C@]2(C)C(=O)/C(=N/O)C[C@@H]12 | inactive
Cc1cc(C)c(/C=C2\C(=O)Nc3ccc(NC(=O)CCCCCCC(=O)NO)cc32)[nH]1 | active
COc1ccc(C(=O)c2sc3nc(-c4cccs4)ccc3c2N)cc1OC | inactive
COc1ccc2c(=O)cc(C(Cl)(Cl)Cl)oc2c1 | active
COc1ccc2nc(/C=C/c3ccc(N(C)C)cc3)sc2c1 | inactive
COc1ccccc1NC1=C(N2CCCCC2)C(=O)c2ccccc2C1=O | inactive
Nc1ccc2c(c1)Cc1cc(N)c(Cl)cc1-2 | inactive
O=C1/C(=C/c2ccc(O)cc2O)N=C2SCCCN12 | inactive
CCN(Cc1ccccc1)C1CCN(Cc2cc(Br)ccc2O)CC1 | inactive
CCOc1ccc2c(c1)CC[C@@H]1[C@@H]2CC[C@]2(C)[C@@H](O)[C@@H](O)C[C@@H]12 | inactive
CCc1ccc(-c2nnc(COc3ccc(-c4nc5ccccc5[nH]4)cc3OC)o2)cc1 | inactive
CCCCCCCCCCSC(=N)N (tested in a mixture with another compound) | inactive
C=CCN1C(=O)/C(=C\c2ccc3c(c2)CCC3)SC1=S | inactive
CCN(CC)CCOC(=O)c1ccc(NC(=O)Nc2cccc(Cl)c2)cc1 | inactive
O=NN(CCCl)C(=O)NCc1ccc(-c2ccc(CNC(=O)N(CCCl)N=O)cc2)cc1 | inactive
CCN1CCN(c2ccc(Nc3ncnc4c3nnn4CCc3cc(OC)cc(OC)c3)cc2)CC1 | inactive
NC(N)=NS(=O)(=O)c1ccc(Nc2ccc3nnc(-c4ccncc4)n3n2)cc1 | inactive
COC(=O)c1c(C)nc(Nc2nc3ccccc3s2)nc1-c1ccc(Cl)cc1Cl | inactive
COc1cc(-c2cc(-c3ccc(C)cc3)nc3nc(N)[nH]c(=O)c23)ccc1Oc1ccnc2cc(Cl)ccc12 | inactive
O=C(NCCc1nccs1)c1cnc2c(S)cccc2c1 | inactive
CCN1CCOC1C(C)C (stereo not given) | inactive
COc1cc([C@@H]2c3cc4c(cc3[C@H](SC(=N)N)[C@H]3COC(=O)[C@H]23)OCO4)cc(OC)c1OC | inactive

From: PubChem BioAssay (NCI)
